molecular target: rat lactate dehydrogenase A (rLDHA) (Rattus norvegicus, UniProt P04642)
measurement.kind: pKd
Answer as the number alone; pKd is minus log10 of concentration in mol/L.

I have this molecule here, NC(=O)C1=CN([C@@H]2O[C@H](COP(=O)(O)OP(=O)(O)OC[C@H]3O[C@@H](n4cnc5c(N)ncnc54)[C@H](O)[C@@H]3O)[C@@H](O)[C@H]2O)C=CC1 , and I need its recorded pKd.
5.19
